From: patent US10508092B2

Experiment: Pharmacokinetics (plasma concentration by HPLC and LC/MS) in mice
Type: in vivo
Details: mouse
PROPERTY_MEASURED: half-life (h)

>  <SMILES_DATA>
O=C1c2c(O)cc(O)cc2-c2c(-c3ccc(O)cc3)oc3cc(O)cc1c23

>  <ENDPOINT_RESULT>
1

$$$$

* * *

Assay: Maximum tolerated dose in mouse models
Conditions: in vivo, oral gavage daily, five days out of seven
PROPERTY_MEASURED: MTD (mg/kg)

>  <SMILES_DATA>
O=C1c2c(O)cc(O)cc2-c2c(-c3ccc(O)cc3)oc3cc(O)cc1c23

>  <ENDPOINT_RESULT>
50

$$$$
